System Tested: CYP2D6 (Homo sapiens, UniProt P10635)
Sequence (P10635 whole entry): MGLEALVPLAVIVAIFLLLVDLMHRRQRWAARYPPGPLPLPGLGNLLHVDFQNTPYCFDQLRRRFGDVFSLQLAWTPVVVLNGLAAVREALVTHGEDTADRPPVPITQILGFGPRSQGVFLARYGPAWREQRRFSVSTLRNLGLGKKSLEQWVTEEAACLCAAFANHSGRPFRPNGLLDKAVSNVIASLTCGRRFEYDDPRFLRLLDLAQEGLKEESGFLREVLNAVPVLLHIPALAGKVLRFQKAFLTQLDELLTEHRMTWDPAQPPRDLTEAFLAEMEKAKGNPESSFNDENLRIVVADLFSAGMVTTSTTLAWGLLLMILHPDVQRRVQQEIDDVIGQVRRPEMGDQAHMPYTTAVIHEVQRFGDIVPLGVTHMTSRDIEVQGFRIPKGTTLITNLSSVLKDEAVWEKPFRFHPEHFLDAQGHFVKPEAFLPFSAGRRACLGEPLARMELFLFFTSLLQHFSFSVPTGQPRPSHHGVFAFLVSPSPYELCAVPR
Experimental Details: Inhibition of CYP2D6 (unknown origin) at 10 uM relative to control
Type: ADME
Assay Readout: inhibition at 10 µM

Lab note: measured inhibition at 10 µM of CCCCC(N)C(=O)NCCc1ccc(-c2ccc(Cl)c(Cl)c2)cc1.Cl (racemic) was > 70%

----------
Test system: Cryptococcus neoformans
Experimental Details: Antifungal activity against Cryptococcus neoformans H99 assessed as reduction in fungal growth incubated for 72 hrs by CLSI based broth microdilution method
Type: functional
MIC vs 8 µg/mL: less than gives label 1; not less than gives label 0.

Dear reviewer, please state whether CC(NCCc1ccc(OCc2cccc(F)c2)cc1)C(N)=O.CS(=O)(=O)O (racemic) has MIC strictly beneath 8 µg/mL.
label 0

Dear reviewer, please state whether CCCC(NC)C(=O)NCCc1ccc(-c2ccc(Cl)c(Cl)c2)cc1.Cl (racemic) has MIC strictly beneath 8 µg/mL.
label 1

Dear reviewer, please state whether CCCC(N)C(=O)NCCc1ccc(OCc2ccc(C(F)(F)F)cc2)cc1.Cl (racemic) has MIC strictly beneath 8 µg/mL.
label 0

Dear reviewer, please state whether CCC(NC)C(=O)NCCc1ccc(-c2ccc(OC(F)(F)F)cc2)cc1.Cl (racemic) has MIC strictly beneath 8 µg/mL.
label 0

Dear reviewer, please state whether CCCCC(NC)C(=O)NCCc1ccc(-c2ccc(C(F)(F)F)cc2)cc1.Cl (racemic) has MIC strictly beneath 8 µg/mL.
label 1

Dear reviewer, please state whether CCCC(N)C(=O)NCCc1ccc(Oc2ccc(C(F)(F)F)cc2)cc1.Cl (racemic) has MIC strictly beneath 8 µg/mL.
label 0

Dear reviewer, please state whether `CC(C)(NCCc1ccc(OCc2cccc(C(F)(F)F)c2)cc1)C(N)=O.CS(=O)(=O)O` has MIC strictly beneath 8 µg/mL.
label 0

Dear reviewer, please state whether CC(NCCc1ccc(-c2ccc(C(F)(F)F)cc2)cc1)C(N)=O.CS(=O)(=O)O (racemic) has MIC strictly beneath 8 µg/mL.
label 0

Dear reviewer, please state whether CCCC(N)C(=O)NCCc1ccc(-c2ccc(OC(F)(F)F)cc2)cc1.Cl (racemic) has MIC strictly beneath 8 µg/mL.
label 1

Dear reviewer, please state whether CCC(N)C(=O)NCCc1ccc(-c2ccc(OC(F)(F)F)cc2)cc1.Cl (racemic) has MIC strictly beneath 8 µg/mL.
label 0

Dear reviewer, please state whether CCCCC(NC)C(=O)NCCc1ccc(-c2ccc(Cl)c(Cl)c2)cc1.Cl (racemic) has MIC strictly beneath 8 µg/mL.
label 1

Dear reviewer, please state whether CC(NCCc1ccc(OCc2ccc(F)cc2)cc1)C(N)=O.CS(=O)(=O)O (racemic) has MIC strictly beneath 8 µg/mL.
label 0

Dear reviewer, please state whether CC(NCCc1ccc(-c2cccc(OC(F)(F)F)c2)cc1)C(N)=O.CS(=O)(=O)O (racemic) has MIC strictly beneath 8 µg/mL.
label 0

----------
Experimental Details: Stability in rat hepatocytes assessed as parent compound remaining incubated for 60 mins
Type: ADME, cell-based, Hepatocyte
Setup Conditions: read-out: Stability
Assay Readout: remaining at 1 h (%)
Dear colleague, please return just the value in %, with no unit written.

Lab note: measured remaining at 1 h of CCCC(N)C(=O)NCCc1ccc(-c2ccc(Cl)c(Cl)c2)cc1.Cl (racemic) was 36.2

----------
Experimental Details: Cmax in Sprague-Dawley rat at 10 mg/kg, po
Assay type: ADME, organism-based
Set-up: route oral, dose 10 mg/kg
Setup Conditions: in vivo
Assay Readout: Cmax (ng/mL)
Dear colleague, please return just the value in ng/mL, with no unit written.

Lab note: measured Cmax of CCCC(N)C(=O)NCCc1ccc(-c2ccc(Cl)c(Cl)c2)cc1.Cl (racemic) was 97.3
